EXPERIMENTAL TARGET: T1, integrin αVβ5 (UniProt P06756 31-992; P18084 24-719)
T1 construct: Coated on the ELISA plate
T1 sequence (P06756 31-992, chain 1 of 2): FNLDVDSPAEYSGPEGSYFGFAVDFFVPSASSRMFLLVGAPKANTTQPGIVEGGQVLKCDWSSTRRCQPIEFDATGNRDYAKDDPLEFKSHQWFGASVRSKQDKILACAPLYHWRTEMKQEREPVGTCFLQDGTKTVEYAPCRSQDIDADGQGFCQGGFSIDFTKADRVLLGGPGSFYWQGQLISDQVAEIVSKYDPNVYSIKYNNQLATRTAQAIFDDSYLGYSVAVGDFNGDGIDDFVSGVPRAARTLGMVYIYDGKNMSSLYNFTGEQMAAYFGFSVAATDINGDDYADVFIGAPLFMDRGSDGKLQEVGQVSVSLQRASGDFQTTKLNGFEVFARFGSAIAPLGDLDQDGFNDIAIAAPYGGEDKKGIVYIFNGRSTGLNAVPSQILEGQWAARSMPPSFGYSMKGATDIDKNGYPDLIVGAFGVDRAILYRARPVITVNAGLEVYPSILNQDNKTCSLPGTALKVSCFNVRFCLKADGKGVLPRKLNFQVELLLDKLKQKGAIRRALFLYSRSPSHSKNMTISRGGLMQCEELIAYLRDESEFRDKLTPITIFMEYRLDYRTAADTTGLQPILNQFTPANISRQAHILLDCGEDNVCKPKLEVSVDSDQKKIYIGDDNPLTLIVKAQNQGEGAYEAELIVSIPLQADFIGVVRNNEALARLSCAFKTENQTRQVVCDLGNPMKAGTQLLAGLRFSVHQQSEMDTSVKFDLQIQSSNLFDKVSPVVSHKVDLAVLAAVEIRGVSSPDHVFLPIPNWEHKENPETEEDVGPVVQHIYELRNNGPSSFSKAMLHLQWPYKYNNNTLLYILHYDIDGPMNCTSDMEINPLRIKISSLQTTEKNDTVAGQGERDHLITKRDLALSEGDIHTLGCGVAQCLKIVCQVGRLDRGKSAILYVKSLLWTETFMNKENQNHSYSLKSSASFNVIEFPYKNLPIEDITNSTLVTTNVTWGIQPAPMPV
T1 sequence (P18084 24-719, chain 2 of 2): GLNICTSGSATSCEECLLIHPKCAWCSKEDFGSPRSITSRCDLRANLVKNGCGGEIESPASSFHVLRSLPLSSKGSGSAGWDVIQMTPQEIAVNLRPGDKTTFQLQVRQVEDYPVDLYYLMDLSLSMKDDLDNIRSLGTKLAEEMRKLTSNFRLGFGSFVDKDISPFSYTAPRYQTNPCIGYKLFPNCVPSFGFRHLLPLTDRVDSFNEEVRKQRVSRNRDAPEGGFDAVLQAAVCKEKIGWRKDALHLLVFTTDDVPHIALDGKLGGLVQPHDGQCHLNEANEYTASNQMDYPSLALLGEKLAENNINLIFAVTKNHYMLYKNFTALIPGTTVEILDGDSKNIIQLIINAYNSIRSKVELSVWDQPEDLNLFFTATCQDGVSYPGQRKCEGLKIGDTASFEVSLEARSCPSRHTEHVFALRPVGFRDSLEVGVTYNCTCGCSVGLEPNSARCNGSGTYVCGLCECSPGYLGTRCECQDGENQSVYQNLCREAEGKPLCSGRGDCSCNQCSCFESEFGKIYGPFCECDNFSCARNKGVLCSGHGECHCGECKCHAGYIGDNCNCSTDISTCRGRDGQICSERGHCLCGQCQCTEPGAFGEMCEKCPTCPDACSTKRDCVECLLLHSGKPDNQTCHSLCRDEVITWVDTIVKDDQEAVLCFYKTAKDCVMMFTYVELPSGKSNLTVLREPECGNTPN
EXPERIMENT SUMMARY: ELISA, coated integrin, anti-MICA-HRP
Listed here are binders together with their documented αvβ5 signal/ng.
The answer is to be given in signal/ng MICA; state only the numeric part.

soluble MICA generated from pKK56 (tight loop 1 insert T-5.3) (designed binder, From pSW324 (from pKK34: His6, Glu125); secreted by 293T cells; also called 1-T-5.3) HHHHHHEPHSLRYNLTVLSWDGSVQSGFLTEVHLDGQPFLRCDRQKCRAKPQGQWAEDVLGNKTWDRETRDLTGNGKDLRMTLAHIKDQKEGLHSLQEIRVCEIHEDNSTRSSQHFYYDGELFLSQNLETEEWTMPQSSRAQTLAMNVRNFLKEDAMKTKTHYHAMHADCLQELRRYLKSGVVLRRTVPPMVNHLARGDDLTYCRASGFYPWNITLSWRQDGVSLSHDTQQWGDVLPDGNGTYQTWVATRICQGEEQRFTCYMEHSGNHSTHPVPSGK; 18.3

Now for a further binder.
Entry under review: soluble MICA generated from pKK41 (loop 1 insert 5.2) (designed binder, From pKK34 (His6, Glu125); secreted by 293T cells; also called 1-5.2) HHHHHHEPHSLRYNLTVLSWDGSVQSGFLTEVHLDGQPFLRCDRQKCRAKPQGQWAEDVLGNKTWDRETRDLTGNGKDLRMTLAHIKDQKEGLHSLQEIRVCEIHEDNSTRSSQHFYYDGELFLSQNLETEEWTMPQSSRAQTLAMNVRNFLKEDAMKTKTHYHAMHADCLQELRRYLKSGVVLRRTVPPMVNVTRGDTFTQSVTCRASGFYPWNITLSWRQDGVSLSHDTQQWGDVLPDGNGTYQTWVATRICQGEEQRFTCYMEHSGNHSTHPVPSGK . Reported αvβ5 signal/ng? 22.4
